For each entry below, report its pIC50 value.
Biological target: UniProtKB Q16552
Sequence (Q16552 20-155 limits assumed): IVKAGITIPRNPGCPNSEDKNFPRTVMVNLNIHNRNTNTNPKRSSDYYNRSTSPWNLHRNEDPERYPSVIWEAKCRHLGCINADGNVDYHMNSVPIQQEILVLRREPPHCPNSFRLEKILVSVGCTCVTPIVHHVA
Experiment: Inhibition of human IL-17A protein-induced GROα/CXCL1 production in HT-29 cells
Assay type: cell-based
Parameters: purchased R&D 317-ILB; host or cells: added exogenously to HT-29 cells
Conditions: 30 ng/mL human IL-17A protein, 48 h, GROα in supernatant by ELISA kit, read-out: Inhibitory IC50 of compounds on HT-29 cell GROα/CXCL1
pIC50: −log10 of the molar value.

Exam item: Return reported pIC50; argument: CCn1nccc1C(=O)N[C@H](C(=O)Nc1cc2c(cc1F)-c1c(n[nH]c1C)CC(=O)N(CCOC)C2)C(C1CC1)C1CC1
Marked response: 6.30 to 7.00

Exam item: And what about the compound CCN1CCc2n[nH]c(C)c2-c2cc(F)c(NC(=O)[C@@H](NC(=O)c3ccnn3CC)C(C3CC3)C3CC3)cc2C1 ?
Marked response: 6.30 to 7.00

Exam item: And what about the compound Cc1[nH]nc2c1-c1ccc(NC(=O)[C@@H](NC(=O)c3ccnn3C(C)C)C(C3CC3)C3CC3)cc1CNC(=O)C2 ?
Marked response: 6.30 to 7.00

Exam item: And what about the compound Cc1[nH]nc2c1-c1cc(F)c(NC(=O)[C@@H](NC(=O)/C(F)=C\C3CC3)C(C3CC3)C3CC3)cc1COCC2 ?
Marked response: ≥ 7.00

Exam item: And what about the compound CCn1nccc1C(=O)N[C@H](C(=O)Nc1cc2c(cc1F)-c1c(n[nH]c1C)CC(=O)N(CC(F)F)C2)C(C1CC1)C1CC1 ?
Marked response: ≥ 7.00

Exam item: And what about the compound CCC1Cc2n[nH]c(C)c2-c2cc(F)c(NC(=O)[C@@H](NC(=O)c3ccnn3C(C)C)C(C3CC3)C3CC3)cc2CO1 (single isomer, unassigned) [compound 120a] ?
Marked response: 6.30 to 7.00

Exam item: And what about the compound CC(=O)N1CCc2n[nH]c(C)c2-c2cnc(NC(=O)[C@@H](NC(=O)c3ccnn3C(C)C)C(C3CC3)C3CC3)cc2C1 ?
Marked response: 6.30 to 7.00

Exam item: And what about the compound Cc1[nH]nc2c1-c1cc(F)c(NC(=O)[C@@H](NC(=O)c3ccnn3C(C)C)C(C3CC3)C3CC3)cc1CN(C(C)C(F)(F)F)C(=O)C2 (mixture of isomers) [compound 173] ?
Marked response: ≥ 7.00

Exam item: And what about the compound Cc1[nH]nc2c1-c1cnc(NC(=O)[C@@H](NC(=O)c3ccnn3C(C)C)C(C3CC3)C3CC3)cc1CN(CC(F)F)C(=O)C2 ?
Marked response: ≥ 7.00

Exam item: And what about the compound Cc1[nH]nc2c1-c1cnc(NC(=O)[C@@H](NC(=O)c3conc3C(C)C)C(C3CC3)C3CC3)cc1COCC2 ?
Marked response: 6.30 to 7.00

Exam item: And what about the compound Cc1[nH]nc2c1-c1cc(F)c(NC(=O)[C@@H](NC(=O)c3ccnn3C(C)C)C(C3CC3)C3CC3)cc1CN(C1CCC1)C(=O)C2 ?
Marked response: ≥ 7.00

Exam item: And what about the compound Cc1[nH]nc2c1-c1cnc(NC(=O)[C@@H](NC(=O)c3ccnn3C(C)C)C(C3CC3)C3CC3)cc1CN(C1CC(F)(F)C1)C(=O)C2 ?
Marked response: ≥ 7.00

Exam item: And what about the compound Cc1[nH]nc2c1-c1cc(F)c(NC(=O)[C@@H](NC(=O)c3ccnn3C(C)C)C3CCCCC3)cc1COCC2 ?
Marked response: 6.30 to 7.00

Exam item: And what about the compound CCOCCn1nccc1C(=O)N[C@H](C(=O)Nc1cc2c(cc1F)-c1c(n[nH]c1C)CCOC2)C(C1CC1)C1CC1 ?
Marked response: 6.30 to 7.00

Exam item: And what about the compound CCN1CCc2n[nH]c(C)c2-c2cc(F)c(NC(=O)[C@@H](NC(=O)c3ccnn3C(C)C)C(C3CC3)C3CC3)cc2C1 ?
Marked response: 6.30 to 7.00
